Target: Inosine-5'-monophosphate dehydrogenase 2 (Homo sapiens, UniProt P12268)
measured_property: log10(IC50) (log10 of the value in nM)
Each number you see is log10 of IC50, and the unit inside the log is nM.

Would you please look over these solved cases?
>>> quantitative_readout("COc1cc(Nc2nc(NCc3ccccc3)nc(-c3ccccc3)n2)ccc1-c1cnco1")
2.61
>>> quantitative_readout("COc1cc(Nc2nc(-c3ccccc3)nc(N3CCC[C@H]3CO)n2)ccc1-c1cnco1")
1.86
>>> quantitative_readout("COc1cc(Nc2nc(NCC(=O)O)nc(-c3ccccc3)n2)ccc1-c1cnco1")
2.40
>>> quantitative_readout("CNc1nc(Nc2ccc(-c3cnco3)c(OC)c2)nc(-c2ccccc2)n1")
1.88
>>> quantitative_readout("CNc1nc(Nc2ccc(-c3cnco3)c(OC)c2)nc(-c2ccc(C)cc2)n1")
2.23
>>> quantitative_readout("COc1cc(Nc2nc(OCc3ccccc3)nc(-c3ccccc3)n2)ccc1-c1cnco1")
1.51
>>> quantitative_readout("COc1cc(Nc2nncc(-c3ccccc3)n2)ccc1-c1cnco1")
1.65
>>> quantitative_readout("CNc1nc(Nc2ccc(-c3cnco3)c(OC)c2)nc(N2CCC[C@H]2COC)n1")
2.59

What value of measured log10(IC50) is listed for `COc1nc(Nc2ccc(-c3cnco3)c(OC)c2)nc(-c2ccccc2)n1` ?
1.61

What value of measured log10(IC50) is listed for `CNc1nc(Nc2ccc(-c3cnco3)c(OC)c2)nc(N2CCC[C@@H]2CO)n1` ?
2.86

What value of measured log10(IC50) is listed for `COc1cc(Nc2nc(N)nc(-c3ccccc3)n2)ccc1-c1cnco1` ?
1.73

----------
Target: Inosine-5'-monophosphate dehydrogenase 2 (Homo sapiens)
Reported pIC50 by item:
Scale for pIC50: -log10 of concentration given in mol/L; no unit attached.

Would you please look over these solved cases?
>>> quantitative_readout("COc1cc(Nc2nc(NCCC(=O)O)nc(-c3ccccc3)n2)ccc1-c1cnco1")
6.89
>>> quantitative_readout("COc1cc(Nc2nc(-c3ccccc3)nc(N(C)C)n2)ccc1-c1cnco1")
6.57
>>> quantitative_readout("CNc1nc(NC)nc(Nc2ccc(-c3cnco3)c(OC)c2)n1")
6.21

Checklist item: pIC50 tested on Inosine-5'-monophosphate dehydrogenase 2 (Homo sapiens), entry `COc1cc(Nc2nc(-c3ccccc3)nc(N3CCOCC3)n2)ccc1-c1cnco1` , value?
6.72

Where these numbers come from: ChEMBL document CHEMBL1134859
